Values compiled from ChEMBL document CHEMBL4513216.

Measured INHIBITION of individual entries
- System: Plasmodium falciparum
- test.details: Screen against P. falciparum Asexual Blood Stage (ABS), at 5uM
- Format: functional, Dd2
- stated.conditions: tested at 5 uM
Hit rate of the full screen: of about 65,000 compounds, about 2,100 (3.2%) showed an effect of 50% or more. The median lay at about -52%. Only a selection was taken, and strong results are over-represented in it overall.
test.readout: INHIBITION (%)

{"columns": ["chemical.smiles", "study.system", "test.readout", "unit.of.measure", "reported.result"],
 "data": [
  ["FC(F)(F)c1nc(NC2CCCCC2)c2ccccc2n1", "Plasmodium falciparum", "INHIBITION", "%", -10.5],
  ["Cc1ccc2nc(C)cc(NCCNS(=O)(=O)c3cn(C)nc3C)c2c1", "Plasmodium falciparum", "INHIBITION", "%", 47.8],
  ["CCO[C@H]1CO[C@@]2(CCCN(Cc3scnc3C)C2)C1", "Plasmodium falciparum", "INHIBITION", "%", -22.6],
  ["Cc1ccc2nc(C)cc(NCCNS(=O)(=O)c3cccnc3)c2c1", "Plasmodium falciparum", "INHIBITION", "%", 62.9]
]}
